Reference source: patent EP4700021A1

# IC50 listing for each entry below
# Tested on: α-SMA
# assayNotes: in vitro α-SMA expression inhibition (immunostaining, confocal microscopy) in TGF-β1-treated MRC-5 cells
# Assay type: cell-based, human
# appliedConditions: Homo sapiens, TGF-β1 (5 ng/mL), 72 hours, standardized using GAPDH
# Text: When scars are generated in tissue, fibroblasts undergo fibroblast-to-myofibroblast transition (FMT), and the resulting myofibroblasts produce the extracellular matrix, leading to tissue fibrosis. α-SMA is a representative biomarker of myofibroblasts, and its expression greatly increases as FMT progresses. Accordingly, through the evaluation of α-SMA expression inhibitory activity, the efficacy of the compounds in inhibiting fibrosis may be evaluated. […]
readoutName: IC50

>  <compound>
CC1(CNC(=O)N2CCN(Cc3ccccn3)c3ccccc32)COC1 [Compound 57]

>  <result>
≤ 30 µM

$$$$
>  <compound>
CC(C)(C)CC(=O)N1CCN(C(=O)N2CCNCC2)c2ccccc21 [Compound 78]

>  <result>
≤ 30 µM

$$$$
>  <compound>
CN1CC[C@@H](NC(=O)N2CCN(Cc3ccccc3)c3ccccc32)C1 [Compound 34]

>  <result>
1 to 10 µM

$$$$
>  <compound>
N[C@H]1CCN(C(=O)N2CCN(c3ccccn3)c3ccccc32)C1 [Compound 12]

>  <result>
≤ 30 µM

$$$$
>  <compound>
CN1CC[C@@H](COC(=O)N2CCN(c3cnccn3)c3ccccc32)C1 [Compound 31]

>  <result>
1 to 10 µM

$$$$
>  <compound>
O=C(NCC1CC1)N1CCN(c2ccc(F)cc2)c2ccccc21 [Compound 6]

>  <result>
1 to 10 µM

$$$$
>  <compound>
CN(C)[C@H]1CCN(C(=O)N2CCN(Cc3ccccn3)c3ccccc32)C1 [Compound 46]

>  <result>
≤ 30 µM

$$$$
>  <compound>
O=C(NC[C@H]1CCCN1)N1CCN(c2ccccn2)c2ccccc21 [Compound 15]

>  <result>
< 1 µM

$$$$
>  <compound>
N[C@H]1CCN(C(=O)N2CCN(Cc3cccc(F)c3)c3ccccc32)C1 [Compound 39]

>  <result>
< 1 µM

$$$$
>  <compound>
CC(C)N1CC[C@H](NC(=O)N2CCN(c3ccccn3)c3ccccc32)C1 [Compound 11]

>  <result>
1 to 10 µM

$$$$
>  <compound>
O=C(NCC1CCNCC1)N1CCN(Cc2ccc(F)cn2)c2ccccc21 [Compound 66]

>  <result>
< 1 µM

$$$$
>  <compound>
O=C(N[C@@H]1CCOC1)N1CCN(c2cccnc2)c2ccccc21 [Compound 16]

>  <result>
1 to 10 µM

$$$$
>  <compound>
CC1(NC(=O)N2CCN(Cc3ccccn3)c3ccccc32)COC1 [Compound 55]

>  <result>
< 1 µM

$$$$

###

# Tested on: α-SMA
# assayNotes: in vitro α-SMA expression inhibition (immunostaining, confocal microscopy) in TGF-β1-treated MRC-5 cells
# Type: cell-based, human
# appliedConditions: Homo sapiens, TGF-β1 (5 ng/mL), 72 hours, standardized using GAPDH

>  <molecule>
O=C(NCC1CCOC1)N1CCN(Cc2ccccn2)c2ccccc21 (stereo not shown)

>  <IC50>
< 1 µM

$$$$
>  <molecule>
O=C(N1CCOCC1)N1CCN(c2ccccc2Cl)c2ccccc21

>  <IC50>
≤ 30 µM

$$$$
>  <molecule>
CN1CCC(COC(=O)N2CCN(Cc3ccccn3)c3ccccc32)CC1

>  <IC50>
10 to 30 µM

$$$$
>  <molecule>
CC(C)CC(=O)N1CCN(C(=O)NCC2CCNCC2)c2ccccc21

>  <IC50>
≤ 30 µM

$$$$
>  <molecule>
O=C(NC1COC1)N1CCN(Cc2ccccn2)c2ccccc21

>  <IC50>
< 1 µM

$$$$
>  <molecule>
O=C(NCC1CC1)N1CCN(c2ccc(F)cc2)c2cc(F)ccc21

>  <IC50>
1 to 10 µM

$$$$
>  <molecule>
O=C(NC[C@@H]1CCOC1)N1CCN(Cc2ccccn2)c2ccccc21

>  <IC50>
< 1 µM

$$$$
>  <molecule>
O=C(NC1CCNCC1)N1CCN(Cc2ccccn2)c2ccccc21

>  <IC50>
1 to 10 µM

$$$$
>  <molecule>
N[C@H]1CCN(C(=O)N2CCN(Cc3ccccc3F)c3ccccc32)C1

>  <IC50>
1 to 10 µM

$$$$
>  <molecule>
O=C(NCC1COC1)N1CCN(Cc2ccccn2)c2ccccc21

>  <IC50>
10 to 30 µM

$$$$
>  <molecule>
CN1CC[C@H](NC(=O)N2CCN(c3cnccn3)c3ccccc32)C1

>  <IC50>
< 1 µM

$$$$
>  <molecule>
O=C(NC[C@H]1CCCN1)N1CCN(Cc2ccccn2)c2ccccc21

>  <IC50>
1 to 10 µM

$$$$
>  <molecule>
CC(C)CN1CC[C@H](NC(=O)N2CCN(c3cnccn3)c3ccccc32)C1

>  <IC50>
≤ 30 µM

$$$$
>  <molecule>
N[C@H]1CCN(C(=O)N2CCN(Cc3ccc(F)cc3)c3ccccc32)C1.O=C(O)/C=C/C(=O)O

>  <IC50>
< 1 µM

$$$$
>  <molecule>
CC(C)CN1CCC(NC(=O)N2CCN(c3cnccn3)c3ccccc32)CC1

>  <IC50>
10 to 30 µM

$$$$
>  <molecule>
CN1CCC(NC(=O)N2CCN(c3ccc(F)cn3)c3ccccc32)CC1

>  <IC50>
1 to 10 µM

$$$$
>  <molecule>
CN[C@H]1CCN(C(=O)N2CCN(Cc3ccccc3)c3ccccc32)C1

>  <IC50>
10 to 30 µM

$$$$
>  <molecule>
CC(C)N[C@H]1CCN(C(=O)N2CCN(Cc3ccc(F)cc3)c3ccccc32)C1

>  <IC50>
1 to 10 µM

$$$$
>  <molecule>
CN1CC[C@@H](COC(=O)N2CCN(Cc3ccccn3)c3ccccc32)C1

>  <IC50>
< 1 µM

$$$$
>  <molecule>
CN1CCC(NC(=S)N2CCN(c3cnccn3)c3ccccc32)CC1

>  <IC50>
1 to 10 µM

$$$$
>  <molecule>
O=C(NC[C@H]1CCOC1)N1CCN(Cc2ccccn2)c2ccccc21

>  <IC50>
10 to 30 µM

$$$$
>  <molecule>
O=C(NC[C@@H]1CCNC1)N1CCN(c2ccccn2)c2ccccc21

>  <IC50>
1 to 10 µM

$$$$
